System: UACC-62
Assay Method Text: NCI tumour cell line growth inhibition, 48 h
Active and inactive are the calls of the source. No stated cut-off is given here; in the data, active = GI50 up to about 1.1 µM and inactive = higher.
Answer with one of the outcomes Yes (active), No (inactive)

Compound	Measured On	Assigned Class
O=c1cc(/N=N\c2ccc(Br)cc2)[nH]c(=S)[nH]1	UACC-62	No
Cc1nn(-c2ccccc2)c2nc3ccc(Cl)cc3c(-c3ccccc3)c12	UACC-62	No
COc1ccc2nc3n(c2c1)C(=O)c1ccccc1-3	UACC-62	No
O=C1CNC(=O)c2[nH]cnc2N1	UACC-62	No
N/C(=N\O)N/N=C/c1ccc2c(c1)OCO2	UACC-62	No

What was the test verdict on `c1ccc2c(c1)Oc1cccc3cccc-2c13` ?
No

What was the test verdict on N#CCC(=O)NC1C2CC3CC(C2)CC1C3 (stereo not given) ?
No

What was the test verdict on `CCCCc1ccc(Nc2nc(Cl)c3c(ncn3COCCOC(C)=O)n2)cc1` ?
No

What was the test verdict on `Cc1cc2c(cc1C)[n+]([O-])c(-c1c(Cl)cccc1Cl)c(N)[n+]2[O-]` ?
No

What was the test verdict on `O=C(NC12CC3CC(CC(C3)C1)C2)C(=O)c1c[nH]c2ccc(Cl)cc12` ?
No

What was the test verdict on `O=c1c2ccc(Cl)cc2oc2c(CSc3ccccc3)cccc12` ?
No

What was the test verdict on `Cc1ccc2c(O)cc(-c3ccc(Cl)s3)nc2n1` ?
Yes

What was the test verdict on `COc1cc(Cc2cc3c(c(C(=O)O)c2Br)OCO3)cc(OC)c1OC` ?
No

What was the test verdict on COC1CC(OC)C2OC(c3ccccc3)OCC2O1 (stereo not given) ?
No

What was the test verdict on COC(=O)C(CC(C)=O)CS(=O)(=O)CC(=O)C(=O)Nc1cccc([N+](=O)[O-])c1 (stereo not given) ?
No

What was the test verdict on `CC1=C(C(=O)Nc2ccccc2)C(c2ccc([N+](=O)[O-])cc2)C(C(=O)Nc2ccccc2)=C(C)N1` ?
No

What was the test verdict on `COc1cc(/C=C\c2ccc(OC(C)=O)cc2)cc(OC)c1OC` ?
No
